- Test system: WaGa
- assay.comment: qHTS assay to identify novel small-molecules to repurpose for Merkel cell carcinoma treatment (AID 1296009); note: nearly all actives have a fitted effect of over 60% in size
- experimental.setup: MCC and control cell lines, CellTiter-Glo viability, 72 h; series mostly up to 46 µM
Inconclusive results are not listed. The source made the active and inactive calls. Calls come from the whole dose curve; as a rule, active = well fitted inhibition curve with a large enough effect; inconclusive = small, poorly fitted or top-dose-only effect; inactive = flat fitted curve, though single readings scatter.
Return exactly one item of active, inactive

Past entries and their recorded results:
molecule | group
CC(C)CCCC(C)N (centres undefined) | inactive
Oc1c(Cl)cc(Cl)c(Cl)c1Cc1c(O)c(Cl)cc(Cl)c1Cl | active
CN(C)CCC[C@@]1(c2ccc(F)cc2)OCc2cc(C#N)ccc21 | inactive
CCCCC(CC)CN1CN(CC(CC)CCCC)CC(C)(N)C1 (centres undefined) | inactive
CC(C)Nc1cccnc1N1CCN(C(=O)c2cc3cc(NS(C)(=O)=O)ccc3[nH]2)CC1 | inactive
COc1cc(N)c(Cl)cc1C(=O)NC1CCN(Cc2ccccc2)CC1 | inactive
CCCCCCCC/C=C\CCCCCCCCN | inactive
C[C@@H](O)[C@H]1C(=O)N2C(C(=O)O)=C(S[C@@H]3CN[C@H](CNS(N)(=O)=O)C3)[C@H](C)[C@H]12 | inactive

[in] Give the logged outcome of this assay for the following molecule: COC(=O)C(c1ccccc1Cl)N1CCc2sccc2C1 (centres undefined)
[out] inactive
